We begin with a simple list: items and their reported shrunken log2 fold change.
tested on: Escherichia coli TOP10; experiment: shrunken log2 fold change of peptide-encoding DNA abundance (4.5 h post-induction vs induction); higher = less antimicrobial activity (less host growth inhibition); conditions: time post-induction: 4.5 h; library: site-saturation at positions 5, 18, 19, 20
Output spec: single numeric token, no unit.

RRIRHRPPRLPRPRPRPKSSPRP; -0.0395
RRIRHRPPRLPRPRPRPSIIPRP; -0.237
RRIRNRPPRLPRPRPRPGASPRP; 0.412

Item: RRIRPRPPRLPRPRPRPGFMPRP Test system: Escherichia coli TOP10 Read-out: shrunken log2 fold change Value: ? 0.048

Enter reported shrunken log2 fold change observed with Escherichia coli TOP10 for RRIRNRPPRLPRPRPRPRFAPRP 0.164

---

system: Escherichia coli TOP10; test: shrunken log2 fold change of peptide-encoding DNA abundance (4.5 h post-induction vs induction); higher = less antimicrobial activity (less host growth inhibition); conditions: time post-induction: 4.5 h; library: site-saturation at positions 5, 18, 19, 20
# reported shrunken log2 fold change; entries follow

Use the examples below as a reference point.
RRIRFRPPRLPRPRPRPPKWPRP; 0.286
RRIRVRPPRLPRPRPRPFKWPRP; 0.00238
RRIRTRPPRLPRPRPRPQGMPRP; 0.0427
RRIRFRPPRLPRPRPRPMGVPRP; -0.457

Which shrunken log2 fold change is reported for this sequence? RRIRYRPPRLPRPRPRPILIPRP -0.256

---

test system: Escherichia coli TOP10; test: shrunken log2 fold change of peptide-encoding DNA abundance (4.5 h post-induction vs induction); higher = less antimicrobial activity (less host growth inhibition); details: time post-induction: 4.5 h; library: site-saturation at positions 5, 18, 19, 20
Each record's shrunken log2 fold change is compared with lower range: < -0.04; middle range: ≥ -0.04 and < 0.3; upper range: ≥ 0.3 to give its class.

These recorded examples may help you get a feel for the data.
RRIRKRPPRLPRPRPRPEYKPRP; middle range
RRIRRRPPRLPRPRPRPYHMPRP; lower range
RRIRNRPPRLPRPRPRPRILPRP; lower range
RRIRCRPPRLPRPRPRPGLVPRP; middle range
RRIRIRPPRLPRPRPRPKDYPRP; lower range
RRIRCRPPRLPRPRPRPLCAPRP; middle range
RRIRARPPRLPRPRPRPYCKPRP; lower range
RRIRWRPPRLPRPRPRPPTAPRP; upper range

Would you mind sorting RRIRKRPPRLPRPRPRPGWRPRP into the appropriate category? upper range

Class for RRIRWRPPRLPRPRPRPGMQPRP ? upper range

---

tested on: Escherichia coli TOP10; test: shrunken log2 fold change of peptide-encoding DNA abundance (4.5 h post-induction vs induction); higher = less antimicrobial activity (less host growth inhibition); details: time post-induction: 4.5 h; library: site-saturation at positions 5, 18, 19, 20
READOUT TYPE: shrunken log2 fold change

Please review the entries below; each comes with its answer.
RRIRNRPPRLPRPRPRPNVMPRP; -0.16
RRIRRRPPRLPRPRPRPMKYPRP; 0.00758
RRIRWRPPRLPRPRPRPNPVPRP; -0.266
RRIRNRPPRLPRPRPRPWGPPRP; -0.37
RRIRMRPPRLPRPRPRPLEHPRP; 0.0245

Fill blank: measured shrunken log2 fold change of the sequence RRIRMRPPRLPRPRPRPPLHPRP is ____. 0.691

Look up shrunken log2 fold change: RRIRARPPRLPRPRPRPRWWPRP 0.199

So what does the record say about shrunken log2 fold change for RRIRSRPPRLPRPRPRPGMEPRP ? 0.148

Would you kindly share the measured shrunken log2 fold change for RRIRARPPRLPRPRPRPWSHPRP ? -0.186

Returns the measured shrunken log2 fold change for the input sequence. Input: RRIRCRPPRLPRPRPRPWSVPRP -0.34

---

test system: Escherichia coli TOP10; test: shrunken log2 fold change of peptide-encoding DNA abundance (4.5 h post-induction vs induction); higher = less antimicrobial activity (less host growth inhibition); conditions: time post-induction: 4.5 h; library: site-saturation at positions 5, 18, 19, 20
READOUT TYPE: shrunken log2 fold change
// return a plain number; no unit text

Some sequences with known shrunken log2 fold change results, for comparison:
RRIRDRPPRLPRPRPRPPCCPRP; -0.124
RRIRSRPPRLPRPRPRPFGCPRP; 0.029
RRIRSRPPRLPRPRPRPMFWPRP; 0.332
RRIRGRPPRLPRPRPRPASSPRP; 0.653
RRIRVRPPRLPRPRPRPMDMPRP; -0.946

Item RRIRHRPPRLPRPRPRPAENPRP has what recorded shrunken log2 fold change? -0.0113

---

test system: Escherichia coli TOP10; test: shrunken log2 fold change of peptide-encoding DNA abundance (4.5 h post-induction vs induction); higher = less antimicrobial activity (less host growth inhibition); conditions: time post-induction: 4.5 h; library: site-saturation at positions 5, 18, 19, 20
condition met means recorded shrunken log2 fold change is 0.009 or above; condition not met means it is below 0.009.

RRIRCRPPRLPRPRPRPYAYPRP; condition not met

Determine whether measured shrunken log2 fold change meets or exceeds 0.009 for RRIRSRPPRLPRPRPRPWSLPRP condition not met

---

test system: Escherichia coli TOP10; experiment: shrunken log2 fold change of peptide-encoding DNA abundance (4.5 h post-induction vs induction); higher = less antimicrobial activity (less host growth inhibition); settings: time post-induction: 4.5 h; library: site-saturation at positions 5, 18, 19, 20
We use 0.2 as the dividing line for shrunken log2 fold change: on or above the line is True, below is False.

# count of solved cases: 5
RRIRLRPPRLPRPRPRPHFWPRP; False
RRIRCRPPRLPRPRPRPPGRPRP; True
RRIRHRPPRLPRPRPRPGPTPRP; False
RRIRRRPPRLPRPRPRPNWRPRP; True
RRIRPRPPRLPRPRPRPLNIPRP; False

Given the entry RRIRGRPPRLPRPRPRPRAPPRP , answer whether its shrunken log2 fold change meets or surpasses 0.2. True

hey, is shrunken log2 fold change for this one >= 0.2? RRIRMRPPRLPRPRPRPVHTPRP True

---

system: Escherichia coli TOP10; experiment: shrunken log2 fold change of peptide-encoding DNA abundance (4.5 h post-induction vs induction); higher = less antimicrobial activity (less host growth inhibition); settings: time post-induction: 4.5 h; library: site-saturation at positions 5, 18, 19, 20
READOUT TYPE: shrunken log2 fold change
Could you keep your reply to the number by itself?

# count of solved cases: 3
RRIRPRPPRLPRPRPRPTYCPRP; 0.00402
RRIRDRPPRLPRPRPRPVLAPRP; 0.805
RRIRRRPPRLPRPRPRPLHIPRP; 0.212

What shrunken log2 fold change value was documented for this sequence, RRIRARPPRLPRPRPRPCLAPRP ? 0.328

Endpoint output: shrunken log2 fold change of RRIRKRPPRLPRPRPRPKPFPRP . Value? 0.611

Reported shrunken log2 fold change for RRIRERPPRLPRPRPRPCHYPRP : what is it? -0.224

Any idea what its shrunken log2 fold change is? The sequence is RRIRARPPRLPRPRPRPAHEPRP 0.128

shrunken log2 fold change for RRIRRRPPRLPRPRPRPNCPPRP ? 0.039

What value of shrunken log2 fold change has been recorded for this entry: RRIRTRPPRLPRPRPRPREDPRP -0.147

---

system: Escherichia coli TOP10; test: shrunken log2 fold change of peptide-encoding DNA abundance (4.5 h post-induction vs induction); higher = less antimicrobial activity (less host growth inhibition); details: time post-induction: 4.5 h; library: site-saturation at positions 5, 18, 19, 20;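 note: peptides expressed intracellularly from a pBAD plasmid library in pooled LB shake-flask culture, induced with 0.3% L-arabinose, DNA abundance read by NGS, three biological replicates, DESeq2 with apeglm shrinkage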
READOUT TYPE: shrunken log2 fold change
No unit in the answer, only the number.

Check out these entries, answers already filled in.
RRIRARPPRLPRPRPRPPELPRP; 0.947
RRIRERPPRLPRPRPRPRQTPRP; 0.253
RRIRKRPPRLPRPRPRPLTFPRP; 0.299
RRIRWRPPRLPRPRPRPHNMPRP; -0.623
RRIRVRPPRLPRPRPRPIMSPRP; -0.0851
RRIRPRPPRLPRPRPRPVMVPRP; 0.171
RRIRDRPPRLPRPRPRPQKAPRP; 0.0864
RRIRYRPPRLPRPRPRPGFCPRP; -0.266
RRIRMRPPRLPRPRPRPIVAPRP; 0.156
RRIRTRPPRLPRPRPRPAAWPRP; 0.754

I'd like to know its shrunken log2 fold change. The sequence in question is RRIRQRPPRLPRPRPRPNDGPRP -0.000777

What value of shrunken log2 fold change has been recorded for this entry: RRIRARPPRLPRPRPRPRRDPRP 0.656

Please give the measured shrunken log2 fold change for this sequence: RRIRNRPPRLPRPRPRPISCPRP -0.205

Recorded shrunken log2 fold change of RRIRNRPPRLPRPRPRPIEHPRP , please. -0.307
